assayed.target: human LPAR1 (Homo sapiens, UniProt Q92633)
Construct: expressed in transfected cells
Sequence (Q92633 whole entry): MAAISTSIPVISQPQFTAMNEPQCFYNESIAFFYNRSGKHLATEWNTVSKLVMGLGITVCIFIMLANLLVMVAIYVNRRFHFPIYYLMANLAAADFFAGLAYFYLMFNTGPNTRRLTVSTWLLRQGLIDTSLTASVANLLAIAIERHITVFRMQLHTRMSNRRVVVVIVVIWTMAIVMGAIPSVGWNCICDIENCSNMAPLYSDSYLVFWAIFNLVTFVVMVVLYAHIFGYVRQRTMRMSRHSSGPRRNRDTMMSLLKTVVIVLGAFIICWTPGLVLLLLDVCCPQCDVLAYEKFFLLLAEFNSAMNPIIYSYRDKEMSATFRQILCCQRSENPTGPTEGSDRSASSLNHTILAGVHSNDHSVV
protocol: Test Example 1: antagonism against response of LPA-induced increase in intracellular Ca2+ concentration in RH7777 cells stably expressing human LPAR1
Format: cell-based
condition.label: RH7777 cells stably expressing human LPAR1; Fluo-4 fluorescence, FDSS6000; read-out: IC50 value (concentration producing 50% antagonism against response of LPA-induced increase in intracellular Ca2+ concentration) (converted)
Note to self: IC50 under 2 nM means true, ties and anything higher get false.

{"columns": ["compound", "group"],
 "data": [
  ["CCOc1cc(C(C)N(CCCCc2ccccc2)C(=O)NC2(C(=O)O)CC(F)(F)C2)c2c(c1)N(CC)CC2 (centres unmarked)", "false"],
  ["CCOc1cc(C(C)N(CCCCc2ccccc2)C(=O)NC2(P(=O)(O)O)CCCC2)cc(OCC)c1C (single isomer, unassigned) [Example 8-2]", "false"],
  ["COc1cc([C@@H](C)N(CCCCc2ccccc2)C(=O)NC2(C(=O)O)CC(F)(F)C2)cc(OC)c1C", "true"],
  ["COc1cc([C@@H](C)N(CCCCc2ccccc2)C(=O)NC2(C(=O)O)CCCC2)cc(OC)c1C", "false"],
  ["CCOc1cc([C@@H](C)N(CCCCc2ccccc2)C(=O)NC2(C(=O)O)CC(=O)C2)cc(OCC)c1C", "false"]
]}

====

assayed.target: human LPAR1 (Homo sapiens)
Construct: expressed in transfected cells
protocol: Test Example 1: antagonism against response of LPA-induced increase in intracellular Ca2+ concentration in RH7777 cells stably expressing human LPAR1
Format: cell-based
condition.label: RH7777 cells stably expressing human LPAR1; Fluo-4 fluorescence, FDSS6000; read-out: IC50 value (concentration producing 50% antagonism against response of LPA-induced increase in intracellular Ca2+ concentration) (converted)
Note to self: IC50 under 3 nM means condition met, ties and anything higher get condition not met.

{"columns": ["compound", "assayed.target", "group"],
 "data": [
  ["CCOc1cc([C@@H](C)N(CCC(F)(F)Cc2ccccc2)C(=O)NC2(C(=O)O)CCOCC2)c(Cl)c(OCC)c1C(C)O (some centres unmarked) [Example 5-68]", "human LPAR1 (Homo sapiens)", "condition not met"],
  ["CCOc1cc([C@@H](C)N(CCO[C@@H](C)c2ccccc2)C(=O)N[C@]2(C(=O)O)C[C@H](OCC)C2)c(Cl)c(OCC)c1C(C)O (some centres unmarked)", "human LPAR1 (Homo sapiens)", "condition not met"],
  ["CCOc1cc([C@@H](C)N(CCO[C@@H](C)c2ccccc2Cl)C(=O)NC2(C(=O)O)CC(F)(F)C2)c(Cl)c(OCC)c1C(C)=O", "human LPAR1 (Homo sapiens)", "condition not met"],
  ["COc1cc(C(C)N(CCOCc2ccccc2)C(=O)NC2(C(=O)O)CCC2)cc(OC)c1C1CC1 (centres unmarked)", "human LPAR1 (Homo sapiens)", "condition not met"],
  ["CCOc1cc([C@@H](C)N(CCO[C@@H](C)c2ccccc2)C(=O)NC2(C(=O)O)CCOCC2)c(Cl)c(OCC)c1C(C)=O", "human LPAR1 (Homo sapiens)", "condition met"]
]}

====

assayed.target: human LPAR1 (Homo sapiens)
Construct: expressed in transfected cells
protocol: Test Example 1: antagonism against response of LPA-induced increase in intracellular Ca2+ concentration in RH7777 cells stably expressing human LPAR1
Type: cell-based
condition.label: RH7777 cells stably expressing human LPAR1; Fluo-4 fluorescence, FDSS6000; read-out: IC50 value (concentration producing 50% antagonism against response of LPA-induced increase in intracellular Ca2+ concentration) (converted)
Experimental: (1) Preparation of RH7777 cells stably expressing human LPAR1 The human LPAR1 expression vector was transfected into RH7777 cells to acquire human LPAR1 expressing cells. […] The cells were seeded onto the Poly-D-Lysine 96 well black plate and incubated overnight. […] In FDSS6000 (Hamamatsu Photonics K.K.), LPAs were added, and the change in intracellular Ca^2+ concentration was detected using the fluorescence value of a wavelength of 540 nm by an excitation wavelength of 480 nm as an indicator. […]
Parameter IC50: see the listing below.

{"columns": ["compound", "assayed.target", "IC50 / nM"],
 "data": [
  ["CCOc1cc([C@@H](C)N(CCCCc2ccccc2)C(=O)NC2(CC(=O)O)CCOCC2)cc(OCC)c1C(C)=O [Example 1-166]", "human LPAR1 (Homo sapiens)", 11],
  ["CCOc1cc([C@@H](C)N(CCCCc2ccccc2)C(=O)NC2(c3nn[nH]n3)CC(F)(F)C2)c(Cl)c(OCC)c1C(C)O (some centres unmarked) [Example 10-10]", "human LPAR1 (Homo sapiens)", 7.08],
  ["CCOc1cc([C@@H](C)N(CCCCC2CCNCC2)C(=O)NC2(C(=O)O)CC(F)(F)C2)cc(OCC)c1C [Example 4-34]", "human LPAR1 (Homo sapiens)", 7630],
  ["CCOc1cc([C@@H](C)N(CCOCc2ccccc2)C(=O)NC2(C(=O)O)CCOCC2)cc(OCC)c1C(C)=O [Example 4-110]", "human LPAR1 (Homo sapiens)", 4.31],
  ["CCOc1cc([C@@H](C)N(CCCCc2ccccc2)C(=O)NC2(C(=O)O)Cc3ccccc3C2)cc(OCC)c1C [Example 1-123]", "human LPAR1 (Homo sapiens)", 12.7],
  ["CCOc1cc([C@@H](C)N(CCCCc2ccccc2)C(=O)N[C@]2(C(=O)O)C[C@H](OC)C2)cc(OCC)c1C(C)=O [Example 1-87]", "human LPAR1 (Homo sapiens)", 1.37],
  ["CCOc1cc(C(C)N(CCCCc2ccccc2)C(=O)NC2(C(=O)O)CC(F)(F)C2)cc(COC)c1C (centres unmarked) [Example 1-74]", "human LPAR1 (Homo sapiens)", 7.15],
  ["CCOc1cc(C(C)N(CCOCc2ccccc2)C(=O)NC2(C(=O)O)CC(OCC)C2)c(C)c(OCC)c1C1CC1 (centres unmarked) [Example 5-215]", "human LPAR1 (Homo sapiens)", 1.01]
]}
